# system_under_test: CDK7/cyclinH/MAT1 trimeric complex (Homo sapiens)
# Sequence (P50613 whole entry): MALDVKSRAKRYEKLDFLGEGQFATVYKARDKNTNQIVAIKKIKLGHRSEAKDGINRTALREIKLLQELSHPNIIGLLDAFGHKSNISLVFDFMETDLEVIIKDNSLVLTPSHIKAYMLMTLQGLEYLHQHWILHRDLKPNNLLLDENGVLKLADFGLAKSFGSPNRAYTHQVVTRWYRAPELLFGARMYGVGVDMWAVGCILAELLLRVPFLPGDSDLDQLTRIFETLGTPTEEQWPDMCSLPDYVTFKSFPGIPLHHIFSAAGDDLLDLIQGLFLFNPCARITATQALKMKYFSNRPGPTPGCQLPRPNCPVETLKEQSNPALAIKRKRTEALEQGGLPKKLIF
# Sequence (P51946 whole entry partner): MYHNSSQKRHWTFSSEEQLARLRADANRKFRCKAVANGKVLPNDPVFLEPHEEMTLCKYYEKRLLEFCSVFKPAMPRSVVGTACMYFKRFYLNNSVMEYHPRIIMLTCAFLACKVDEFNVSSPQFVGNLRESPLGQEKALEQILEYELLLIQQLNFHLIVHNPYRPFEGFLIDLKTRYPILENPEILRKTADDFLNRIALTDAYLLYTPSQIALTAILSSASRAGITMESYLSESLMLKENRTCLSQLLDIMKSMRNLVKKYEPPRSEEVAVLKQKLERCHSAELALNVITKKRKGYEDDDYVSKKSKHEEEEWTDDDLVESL
# Sequence (P51948 whole entry partner): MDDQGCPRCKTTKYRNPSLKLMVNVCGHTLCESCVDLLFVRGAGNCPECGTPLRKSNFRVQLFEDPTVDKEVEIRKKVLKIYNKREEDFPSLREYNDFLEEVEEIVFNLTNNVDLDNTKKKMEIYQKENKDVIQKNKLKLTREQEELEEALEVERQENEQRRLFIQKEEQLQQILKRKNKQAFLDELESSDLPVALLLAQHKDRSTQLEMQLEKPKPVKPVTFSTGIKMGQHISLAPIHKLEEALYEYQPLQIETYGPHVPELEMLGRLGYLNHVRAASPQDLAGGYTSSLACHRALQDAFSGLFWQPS
# assay_details: In vitro CDK7 assay, potency of irreversible covalent inhibitors (kinact/KI), coupled PK/LDH ADP readout at 340 nm
# run_conditions: read-out: CDK7 (20 nM enz.) (kinact/KI, M^−1*s^−1), 20 nM enzyme
measurement_type: kinact/KI (M⁻¹ s⁻¹)

Please review the entries below; each comes with its answer.
- compound: "C=CC(=O)N1CCC(c2nc(C)c(-c3cc(C)c4c(c3)Nc3nccc(C5CCOCC5)c3CO4)c(C)n2)CC1"
  measurement_type: "kinact/KI"
  uom: "M⁻¹ s⁻¹"
  observed: 173
- compound: "C=CC(=O)N1CC(N2CCC(c3cc4c(c(C)n3)O[C@H](C)c3c(N5CCOCC5)ccnc3N4)CC2)C1 (single isomer, unassigned)"
  measurement_type: "kinact/KI"
  uom: "M⁻¹ s⁻¹"
  observed: 1150
- compound: "C=CC(=O)N1CC(N2CC(c3cc4c(cn3)O[C@@H](C)c3c(-c5cnn(C)c5)ccnc3N4)C2)C1 (single isomer, unassigned)"
  measurement_type: "kinact/KI"
  uom: "M⁻¹ s⁻¹"
  observed: 13.7
- compound: "C=CC(=O)N1CC(N2CC[C@@H](c3ccc4c(c3)Nc3nccc(N5CCOCC5)c3CO4)[C@H](O)C2)C1 (mixture of isomers) [Compound 72]"
  measurement_type: "kinact/KI"
  uom: "M⁻¹ s⁻¹"
  observed: 166
- compound: "C=CC(=O)N1CC(N2CCC(c3cc(Cl)c4c(c3)Nc3nccc(N5CCS(=O)(=O)CC5)c3CO4)CC2)C1"
  measurement_type: "kinact/KI"
  uom: "M⁻¹ s⁻¹"
  observed: 2020

A = C=C(F)C(=O)N1CC(N2CCC(c3ccc4c(c3)Nc3nccc(C5CCOCC5)c3CO4)CC2)C1
B = C=CC(=O)N1CC(N2CCC(c3cc(C)c4c(c3)Nc3nccc(C5CCOCC5)c3CO4)CC2)C1
Look at A and B . Which one has the lower recorded kinact/KI number? Refer to your chosen entry by its label in the reply.
A
(A: 59.6 M⁻¹ s⁻¹, B: 1480 M⁻¹ s⁻¹)

a = CC#CC(=O)N1CC(N2CCC(c3cc4c(c(C)n3)O[C@H](C)c3c(-c5cnn(C)c5)ccnc3N4)CC2)C1 (single isomer, unassigned)
b = Cc1nc(C2CN(C3CCN(C(=O)/C=C/CN(C)C)CC3)C2)cc2c1OCc1c(-c3cnn(C)c3)ccnc1N2
Look at a and b . Which one has the lower recorded kinact/KI number? Refer to your chosen entry by its label in the reply.
b
(b: 184 M⁻¹ s⁻¹, a: 2710 M⁻¹ s⁻¹)

I = CC#CC(=O)N1CC(N2CC(c3cc4c(c(C)n3)O[C@@H](C)c3c(C5CCOCC5)ccnc3N4)C2)C1 (single isomer, unassigned)
II = C=CC(=O)N1CC[C@H](N2CC(c3cc(C)c4c(c3)Nc3nccc(N5CCOCC5)c3CO4)C2)C1 (single isomer, unassigned) [Compound 150]
Pick one: I or II . Which has the bigger kinact/KI number? Refer to your chosen entry by its label in the reply.
II
(II: 1660 M⁻¹ s⁻¹, I: 1.54 M⁻¹ s⁻¹)

The measurements presented in this section are drawn from patent US20240254138A1.
